# reported Ki; entries follow
biological target: hCA IX (Homo sapiens); test: Stopped-flow CO2 hydrase assay, hCA IX inhibition; details: read-out: Ki (nM) hCA IX; mean from 3 different assays, errors ±5–10%; stopped-flow CO2 hydrase assay
Your answer should be a plain number; it is taken to be in nM.

Here are 5 compounds together with their reported answers.
[[record]]
record_smiles = "COc1ccc(/C(=N\\O)N2CCN(c3ccc(S(N)(=O)=O)cc3)CC2)cc1"
system_under_test = "hCA IX (Homo sapiens)"
measured_value = 739

[[record]]
record_smiles = "NS(=O)(=O)c1ccc(N2CCN(/C(=N/O)c3ccc(F)cc3)CC2)cc1"
system_under_test = "hCA IX (Homo sapiens)"
measured_value = 1340

[[record]]
record_smiles = "NS(=O)(=O)c1ccc(N2CCN(/C(=N/O)c3ccncc3)CC2)cc1"
system_under_test = "hCA IX (Homo sapiens)"
measured_value = 110

[[record]]
record_smiles = "NS(=O)(=O)c1ccc(N2CCN(/C(=N/O)c3ccccc3)CC2)cc1"
system_under_test = "hCA IX (Homo sapiens)"
measured_value = 121

[[record]]
record_smiles = "NS(=O)(=O)c1ccc(N2CCN(/C(=N/O)c3ccc(O)cc3)CC2)cc1"
system_under_test = "hCA IX (Homo sapiens)"
measured_value = 1180


Now let's try a different one.
Given the entry NS(=O)(=O)c1ccc(N2CCN(/C(=N/O)c3ccc([N+](=O)[O-])cc3)CC2)cc1 , report its measured Ki. 912
